# Subject Of Test: Cannabinoid receptor 2 (Homo sapiens, UniProt P34972)
# Sequence (P34972 whole entry): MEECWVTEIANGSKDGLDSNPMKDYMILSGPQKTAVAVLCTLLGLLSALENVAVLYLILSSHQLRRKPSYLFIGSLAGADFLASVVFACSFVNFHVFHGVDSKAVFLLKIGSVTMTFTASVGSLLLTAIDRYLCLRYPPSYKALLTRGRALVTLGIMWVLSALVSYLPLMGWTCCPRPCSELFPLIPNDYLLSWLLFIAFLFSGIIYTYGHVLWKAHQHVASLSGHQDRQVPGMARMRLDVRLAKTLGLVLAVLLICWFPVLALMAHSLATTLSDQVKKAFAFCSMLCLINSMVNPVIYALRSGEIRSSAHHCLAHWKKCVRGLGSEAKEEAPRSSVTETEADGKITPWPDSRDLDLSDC
# Assay Protocol: Displacement of [3H]-CP55940 from recombinant human CB2 receptor expressed in CHO cells assessed as inhibition constant incubated for 120 mins by radioligand binding assay
Lab note: anything with Ki below 60 nM is marked 1; values at 60 nM or higher are marked 0.

>>> print(df.to_string())
                            chemical_smiles                           subject_of_test  cat
0  CCCCCC[Si](C)(C)c1cc(O)c(C2CCCCCC2)c(O)c1  Cannabinoid receptor 2 (Homo sapiens, UniProt P34972)    1
1   CCCC[Si](C)(C)c1cc(O)c(C2CCCCC2)c(OC)c1  Cannabinoid receptor 2 (Homo sapiens, UniProt P34972)    0
2  CCCCCC[Si](C)(C)c1cc(O)c2c(c1)OC(C)(C)c1ccc(C)cc1-2  Cannabinoid receptor 2 (Homo sapiens, UniProt P34972)    1
3  CCCCCC[Si](C)(C)c1cc(O)c2c(c1)OC(C)(C)[C@@H]1CCC(C)=C[C@@H]21  Cannabinoid receptor 2 (Homo sapiens, UniProt P34972)    1

# next compound below
// query Does the reported Ki of CCCC[Si](C)(C)c1cc(O)c(C2CCCCCC2)c(O)c1 stay below 60 nM?
// result 0

###

# Assay Protocol: Metabolic stability in rat liver microsomes assessed as half life
# Format: ADME, Microsome
Measure Name: half-life (min)
Give a bare numeral; the unit min is implied.

Guide cases for half-life, answers given:
>>> df
                            chemical_smiles  measured_result
0  CCCCCC[Si](C)(C)c1cc(OC)c([C@H]2C=C(CO)[C@H]3C[C@@H]2C3(C)C)c(OC)c1             58.9
1  CCCCCCC(C)(C)c1cc(OC)c([C@H]2C=C(CO)[C@H]3C[C@@H]2C3(C)C)c(OC)c1             18.2
2  C=C(C)[C@@H]1CCC(C)=C[C@H]1c1c(O)cc([Si](C)(C)CCCCCC)cc1O             19.4

As a next step, examine the compound that follows.
The reported value for C=C(C)[C@@H]1CCC(C)=C[C@H]1c1c(O)cc(CCCCC)cc1O in terms of half-life is 1.44

###

# maps each entry to its EC50
# Subject Of Test: Cannabinoid receptor 2 (Homo sapiens, UniProt P34972)
# Assay Protocol: Agonist activity at recombinant human CB2 receptor expressed in CHO cells assessed as inhibition of forskolin-induced cAMP accumulation preincubated for 15 mins followed by forskolin stimulation and measured after 15 mins by HTRF assay
Give a bare numeral; the unit nM is implied.

Guide cases for EC50, answers given:
                            chemical_smiles  measure_name  unit_symbol  measured_result
0   CCCCCC[Si](C)(C)c1cc(O)c(C2CCCC2)c(O)c1          EC50           nM              446
1   CCCC[Si](C)(C)c1cc(O)c(C2CCCCCC2)c(O)c1          EC50           nM             84.4
2  CCCCCC[Si](C)(C)c1cc(O)c(C2CCCCC2)c(OC)c1          EC50           nM             76.4
3  CCCC[Si](C)(C)c1cc(O)c2c(c1)OC(C)(C)[C@@H]1CC=C(CO)C[C@@H]21          EC50           nM             8340
4  CCCC[Si](C)(C)c1cc(O)c2c(c1)OC(C)(C)[C@@H]1CCC(C)=C[C@@H]21          EC50           nM             65.1

The reported value for CCCCCC[Si](C)(C)c1cc(O)c(C2CCCCCC2)c(OC)c1 in terms of EC50 is 82.7

The reported value for CC[Si](C)(C)c1cc(O)c2c(c1)OC(C)(C)[C@@H]1CCC(C)=C[C@@H]21 in terms of EC50 is 352

The reported value for CCCC[Si](C)(C)c1cc(O)c(C2CCCCC2)c(OC)c1 in terms of EC50 is 707

The reported value for CCCCCC[Si](C)(C)c1cc(O)c2c(c1)OC(C)(C)[C@@H]1CC=C(CO)C[C@@H]21 in terms of EC50 is 61.3

The reported value for CCCCCC[Si](C)(C)c1cc(O)c([C@H]2C=C(CO)[C@H]3C[C@@H]2C3(C)C)c(O)c1 in terms of EC50 is 63.5

The reported value for CCCC[Si](C)(C)c1cc(O)c2c(c1)OC(C)(C)c1ccc(C)cc1-2 in terms of EC50 is 268

The reported value for CCCCCC[Si](C)(C)c1cc(OC)c([C@H]2C=C(CO)[C@H]3C[C@@H]2C3(C)C)c(OC)c1 in terms of EC50 is 460

The reported value for CCCCCC[Si](C)(C)c1cc(O)c(C2CCCC2)c(OC)c1 in terms of EC50 is 236

The reported value for CCCC[Si](C)(C)c1cc(O)c(C2CCCCCC2)c(OC)c1 in terms of EC50 is 475

The reported value for CCCCCC[Si](C)(C)c1cc(O)c2c(c1)OC(C)(C)c1ccc(C)cc1-2 in terms of EC50 is 32.6

The reported value for CCCCCC[Si](C)(C)c1cc(O)c2c(c1)OC(C)(C)c1ccc(CO)cc1-2 in terms of EC50 is 27400

The reported value for CCCC[Si](C)(C)c1cc(O)c(C2CCCC2)c(O)c1 in terms of EC50 is 53.8

The reported value for CCCCCC[Si](C)(C)c1cc(O)c2c(c1)OC(C)(C)[C@@H]1CCC(C)=C[C@@H]21 in terms of EC50 is 20.2

The reported value for CCCC[Si](C)(C)c1cc(OC)c([C@H]2C=C(CO)[C@H]3C[C@@H]2C3(C)C)c(OC)c1 in terms of EC50 is 899

The reported value for CCCC[Si](C)(C)c1cc(O)c(C2CCCCC2)c(O)c1 in terms of EC50 is 25.3

The reported value for CCCCCC[Si](C)(C)c1cc(O)c(C2CCCCCC2)c(O)c1 in terms of EC50 is 165

The reported value for C=C(C)[C@@H]1CCC(C)=C[C@H]1c1c(O)cc([Si](C)(C)CCCCCC)cc1O in terms of EC50 is 149

The reported value for CCCCCC[Si](C)(C)c1cc(O)c(C2CCCCC2)c(O)c1 in terms of EC50 is 55

The reported value for CCCC[Si](C)(C)c1cc(O)c(C2CCCC2)c(OC)c1 in terms of EC50 is 1000

The reported value for C=C(C)[C@@H]1CCC(C)=C[C@H]1c1c(O)cc([Si](C)(C)CCCC)cc1O in terms of EC50 is 190

The reported value for CCCC[Si](C)(C)c1cc(O)c2c(c1)OC(C)(C)c1ccc(CO)cc1-2 in terms of EC50 is 267
